Biological target: full-length YAP (Homo sapiens)
Sequence (P46937 whole entry): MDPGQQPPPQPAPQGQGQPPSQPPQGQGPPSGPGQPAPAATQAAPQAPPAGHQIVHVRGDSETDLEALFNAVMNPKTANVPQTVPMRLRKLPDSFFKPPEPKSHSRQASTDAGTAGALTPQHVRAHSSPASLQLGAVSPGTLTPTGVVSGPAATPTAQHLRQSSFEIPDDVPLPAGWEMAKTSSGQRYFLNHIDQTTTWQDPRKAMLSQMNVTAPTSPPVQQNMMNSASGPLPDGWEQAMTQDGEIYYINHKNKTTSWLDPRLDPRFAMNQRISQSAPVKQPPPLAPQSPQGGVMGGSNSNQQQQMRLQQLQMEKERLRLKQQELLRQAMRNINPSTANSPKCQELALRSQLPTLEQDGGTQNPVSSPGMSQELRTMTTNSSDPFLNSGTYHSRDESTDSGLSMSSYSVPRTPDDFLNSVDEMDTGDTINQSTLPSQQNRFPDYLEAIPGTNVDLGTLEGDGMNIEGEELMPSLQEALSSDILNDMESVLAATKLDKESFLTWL
Readout name: Kd (nM)

1. COc1ccc(-c2cc(-c3ccccc3)nc3c2CC(=O)Nc2ccccc2-3)cc1OC [NSC682769]    738
